Biological target: T1, human CD22-ECD-His protein (human, UniProt P20273 20-687)
T1 construct: Recombinant, from HEK293E cells; also called hCD22-ECD-His; human CD22-His protein; not shown: His tag
T1 sequence: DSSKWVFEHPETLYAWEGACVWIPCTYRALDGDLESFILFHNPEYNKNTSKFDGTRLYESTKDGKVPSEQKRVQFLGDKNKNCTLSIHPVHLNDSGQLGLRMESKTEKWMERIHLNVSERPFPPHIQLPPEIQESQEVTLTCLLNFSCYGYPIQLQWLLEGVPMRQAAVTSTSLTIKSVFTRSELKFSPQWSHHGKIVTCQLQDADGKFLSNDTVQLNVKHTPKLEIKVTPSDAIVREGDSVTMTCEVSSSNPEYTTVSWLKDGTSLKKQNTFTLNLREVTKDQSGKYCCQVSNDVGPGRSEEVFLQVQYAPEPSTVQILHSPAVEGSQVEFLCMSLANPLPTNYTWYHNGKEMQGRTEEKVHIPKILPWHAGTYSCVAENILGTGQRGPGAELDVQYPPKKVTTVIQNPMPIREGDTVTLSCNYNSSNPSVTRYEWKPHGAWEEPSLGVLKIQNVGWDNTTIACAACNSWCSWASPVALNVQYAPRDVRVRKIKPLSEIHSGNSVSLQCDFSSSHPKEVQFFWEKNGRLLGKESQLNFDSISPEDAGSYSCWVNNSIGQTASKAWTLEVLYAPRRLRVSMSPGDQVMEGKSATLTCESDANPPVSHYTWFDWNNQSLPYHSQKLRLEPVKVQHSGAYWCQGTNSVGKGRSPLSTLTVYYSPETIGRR
Experiment: SPR (Biacore), antibody captured on Protein A chip, CD22-ECD-His in solution
Experimental: Sample buffer and running buffer were HBS-EP+(10 mM HEPES, 150 mM NaCl, 3 mM EDTA, 0.05% surfactant P20) (GE Healthcare; BR-1006-69). The flow-through cell was set to 25° C. The sample block was set to 16° C. Both were pretreated with the running buffer. […] The binding and dissociation process of the antibody and the antigen protein was recorded, and finally Glycine pH 1.5 (GE Healthcare; BR-1003-54) was used to complete chip regeneration. […]
Entries annotated with measured pKd
Note on pKd: it is the negative log10 of concentration, concentration in mol/L.

Query: Would you mind telling me what pKd value was observed for F1.267.9 (antibody, human IgG1, kappa, V domains shown, Chimeric IgG1 kappa) VH: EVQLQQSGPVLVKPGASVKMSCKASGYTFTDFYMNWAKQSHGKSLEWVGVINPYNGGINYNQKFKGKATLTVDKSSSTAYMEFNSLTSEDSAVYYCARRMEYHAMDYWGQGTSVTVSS VL: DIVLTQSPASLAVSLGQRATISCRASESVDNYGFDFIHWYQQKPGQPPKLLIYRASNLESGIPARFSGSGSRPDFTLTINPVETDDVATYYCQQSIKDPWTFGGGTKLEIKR ?
Reply: 7.39

Query: Would you mind telling me what pKd value was observed for F1.250.16 (antibody, human IgG1, kappa, V domains shown, Chimeric IgG1 kappa) VH: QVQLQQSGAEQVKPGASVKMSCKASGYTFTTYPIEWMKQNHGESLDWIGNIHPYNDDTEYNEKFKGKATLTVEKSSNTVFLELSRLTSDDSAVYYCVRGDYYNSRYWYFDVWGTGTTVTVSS VL: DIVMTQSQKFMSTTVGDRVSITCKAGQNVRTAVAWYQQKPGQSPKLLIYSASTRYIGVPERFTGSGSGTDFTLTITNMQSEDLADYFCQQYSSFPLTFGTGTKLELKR ?
Reply: 8.84

Query: Would you mind telling me what pKd value was observed for F1.192.1 (antibody, human IgG1, kappa, V domains shown, Chimeric IgG1 kappa) VH: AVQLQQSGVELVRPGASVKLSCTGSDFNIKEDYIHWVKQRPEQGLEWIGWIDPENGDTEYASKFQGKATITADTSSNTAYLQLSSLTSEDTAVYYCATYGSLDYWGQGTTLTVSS VL: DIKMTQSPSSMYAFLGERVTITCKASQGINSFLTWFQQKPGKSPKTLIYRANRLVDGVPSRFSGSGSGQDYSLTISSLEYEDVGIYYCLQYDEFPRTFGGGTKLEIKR ?
Reply: 8.97
